Molecular target: RAC-alpha serine/threonine-protein kinase (Homo sapiens) (UniProt P31749)
Assay: HTS Assay for Inhibitors of Akt Phophorylation: Primary Screen
Conditions: Neuro2A IGF-stimulated pAkt S473 HTRF, 20 min; at 50 µM
About 1,100 (0.31%) of roughly 360,000 compounds were called active. Cut-off read from the data, not from the text of the source: active = activity change below about -80%; inconclusive = mostly about -51% to -80%; inactive = weaker than that. The sample as a whole holds a higher share of actives than the screen did.
The reply should be one of these categories: active, inactive

- molecule: "O=C(NC1CCCCC1)C(c1cc2ccccc2o1)n1c(=O)c(-c2ccco2)nc2ccccc21 (stereo not given)"
  assay-target: "RAC-alpha serine/threonine-protein kinase (Homo sapiens) (UniProt P31749)"
  class-label: "inactive"
- molecule: "COc1c(Br)cc2c(C)c(C(=O)N3CCOCC3)oc2c1Br"
  assay-target: "RAC-alpha serine/threonine-protein kinase (Homo sapiens) (UniProt P31749)"
  class-label: "active"
- molecule: "O=C(c1cc2cc(Br)cc(Br)c2oc1=O)N1CCOCC1"
  assay-target: "RAC-alpha serine/threonine-protein kinase (Homo sapiens) (UniProt P31749)"
  class-label: "inactive"

Q: Per the assay record, what outcome was assigned to O=C(COC(=O)c1ccccc1O)NCc1ccco1 ?
Result: inactive

Q: Per the assay record, what outcome was assigned to Cc1cccc(C)c1NC(=O)C(c1ccc(C(F)(F)F)cc1)n1c(=O)c(-c2ccco2)nc2ccccc21 (stereo not given) ?
Result: inactive

Q: Per the assay record, what outcome was assigned to CCN1C(=O)/C(=C\N2CCOCC2)SC1=S ?
Result: inactive

Q: Per the assay record, what outcome was assigned to CCCc1nnc(NC(=O)CCC(=O)N2CCN(S(=O)(=O)c3ccc(OC)cc3)CC2)s1 ?
Result: inactive

Q: Per the assay record, what outcome was assigned to O=C(NCc1ccccc1)[C@H]1C[C@@H]1[C@H](NP(=O)(c1ccccc1)c1ccccc1)c1ccccc1 ?
Result: inactive

Q: Per the assay record, what outcome was assigned to Cc1ccc2c(C)c(C(=O)N3CCN(c4ccncc4)CC3)oc2c1C ?
Result: inactive

Q: Per the assay record, what outcome was assigned to O=C(COC(=O)CCC(=O)c1cccs1)NCc1ccco1 ?
Result: active

---

Target: RAC-alpha serine/threonine-protein kinase (Homo sapiens)
Experiment: HTS Assay for Inhibitors of Akt Phophorylation: Primary Screen
Settings: Neuro2A IGF-stimulated pAkt S473 HTRF, 20 min; at 50 µM
Hit rate of the full screen: of about 360,000 compounds, about 1,100 (0.31%) were called active. No stated cut-off is given here; in the data, active means activity change below about -80%; inconclusive means mostly about -51% to -80%; inactive means weaker than that. This is one part of a sample in which actives are shown more often than they occur.
The reply should be one of these categories: active, inactive

- compound: "CC1(C(=O)O)CCCN(C(=O)/C=C/c2ccccc2)C1 (configuration not stated)"
  class-label: "inactive"

Q: Per the assay record, what outcome was assigned to COCCN1C(=O)C(=O)/C(=C(/O)c2ccc(S(=O)(=O)N3CCOCC3)cc2)C1c1ccc(O)c(OC)c1 (configuration not stated) ?
Result: inactive

Q: Per the assay record, what outcome was assigned to O=C(Nc1ncc2c(n1)-c1ccccc1OC2)c1ccc(Cl)cc1 ?
Result: active

Q: Per the assay record, what outcome was assigned to COCCN1C(=O)c2oc3c(C)cc(C)cc3c(=O)c2C1c1cccc(O)c1 (configuration not stated) ?
Result: active

Q: Per the assay record, what outcome was assigned to COc1nc(OC)nc(N(C)CCO)n1 ?
Result: active

Q: Per the assay record, what outcome was assigned to O=C(CCn1ccc([N+](=O)[O-])n1)Nc1nccs1 ?
Result: inactive

Q: Per the assay record, what outcome was assigned to COc1nc(Oc2ccc(=O)n(C)n2)nc(N(C)C)n1 ?
Result: inactive
